For each record, write down the corresponding Activity.
Molecular target: Gonadotropin-releasing hormone receptor (Rattus norvegicus)
Sequence (whole entry): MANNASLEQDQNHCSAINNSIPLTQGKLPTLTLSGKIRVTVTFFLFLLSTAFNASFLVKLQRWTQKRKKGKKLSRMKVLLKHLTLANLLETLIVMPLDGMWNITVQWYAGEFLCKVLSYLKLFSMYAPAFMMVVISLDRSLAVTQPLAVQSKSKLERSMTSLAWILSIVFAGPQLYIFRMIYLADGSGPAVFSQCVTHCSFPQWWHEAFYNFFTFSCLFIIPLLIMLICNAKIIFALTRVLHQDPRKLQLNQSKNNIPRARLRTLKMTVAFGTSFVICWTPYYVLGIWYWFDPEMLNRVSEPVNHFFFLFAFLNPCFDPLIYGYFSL
Experiment: Antagonist activity at LH-RH receptor in Sprague-Dawley rat pituitary gland assessed as change in LH-RH-induced follicle-stimulating hormone release at 100 ug/ml preincubated for 2 hrs followed by LH-RH addition at 5th and 6th hr 5 mins post drug addition and measured every hour for 4 hrs by RIA
Square brackets hold non-standard residues; d marks the D form. Peptide text beside a SMILES is read from it. pGlu = O=C1CC[C@@H](C(=O)O)N1
Reply with just the number (in ng/mL).

Enquiry: What does the record list as Activity for CC(C)C[C@H](NC(=O)CNC(=O)[C@H](Cc1ccc(O)cc1)NC(=O)[C@H](CO)NC(=O)[C@H](CC(C)C)NC(=O)[C@@H](NC(=O)[C@@H]1CCC(=O)N1)[C@@H](C)O)C(=O)N[C@@H](CCCNC(=N)N)C(=O)N1CCC[C@H]1C(=O)NCC(N)=O ([pGlu]TLSYGLRPG-NH2) ?
Return: 3230

Enquiry: Consider next the compound `CCNC(=O)[C@@H]1CCCN1C(=O)[C@H](CCCNC(=N)N)NC(=O)[C@H](CC(C)C)NC(=O)[C@@H](C)NC(=O)[C@H](Cc1ccc(O)cc1)NC(=O)[C@H](CO)NC(=O)[C@H](C)NC(=O)[C@H](CC)NC(=O)[C@@H]1CCC(=O)N1` in the same way.
Return: 1780

Enquiry: Consider next the compound `CC(C)C[C@H](NC(=O)[C@@H]1CCC(=O)N1)C(=O)N[C@@H](C)C(=O)N[C@@H](CO)C(=O)N[C@@H](Cc1ccc(O)cc1)C(=O)N[C@H](C)C(=O)N[C@@H](CC(C)C)C(=O)N[C@@H](CCCNC(=N)N)C(=O)N1CCC[C@H]1C(=O)NCC(N)=O` in the same way.
Return: 5850

The reported numbers originate from ChEMBL document CHEMBL3272172.
